- method-notes: in vitro
- condition-parameters: mouse
parameter: viability at 24 h, 40 μM (%)
Give bare numbers, in %.

Given CCN(CC)CCCC(C)Nc1ccnc2cc(Cl)ccc12 (stereo not shown) [chloroquine, reference compound] , state its recorded viability at 24 h, 40 μM.
8
